Tested on: anti-digoxigenin IgG antibody (sheep)
assay: fluorescence (FRET) titration
runConditions: 5'-digoxigenin; 25 mM HEPES pH 7.2, 0.1 M NaCl, 37 C (FRET titrations, templated reactions); native PAGE binding buffer not given in the material
measureName: Kd (nM)

- GTCACCGCAAAATAAGATTTTTTTTTTGAGTCGAATTCGTACC [DIG-Q-strand#2 (DIG-conjugated templating strand)]: 3.6
